Source of measurements: PubChem BioAssay (EPA / NIEHS)

Read-out: Interleukin 17F (IL17F), IL17F (gene 112744)
Assay: BSK_BT_xIL17F: BioMAP Diversity Plus: BT Assay for Interleukin 17F (IL17F) Biomarker Activity (AID 2284243)
Conditions: primary human B cells with PBMC
Description: BSK_BT is a cell-based, multiplexed-readout assay that uses B cell and peripheral blood mononuclear cells, a human vascular primary cell co-culture, with measurements taken at 24 hours after chemical dosing in a microplate: 96-well plate.BSK_BT_xIL17F is an assay component measured in the BSK_BT assay. […] Using a type of cytokine quantitation reporter, gain or loss-of-signal activity can be used to understand protein changes. […]
The source made the active and inactive calls. Rule for the calls: active = hit-call score of the fitted dose curve at least 0.9, where 1 is the maximum; inactive = score below 0.9.
// classify into class 1 (active), class 0 (inactive)

{"MOLECULE": "COc1cc(OC)nc(NC(=O)NS(=O)(=O)c2ncccc2C(=O)N(C)C)n1", "CLASS_LABEL": "class 0"}
{"MOLECULE": "CC(=O)C(Cl)C(=O)N(C)C (stereo not given)", "CLASS_LABEL": "class 1"}
{"MOLECULE": "O=[N+]([O-])c1ccc2c3c(cccc13)CC2", "CLASS_LABEL": "class 0"}
{"MOLECULE": "COC[C@H](C)N(C(=O)CCl)c1c(C)csc1C", "CLASS_LABEL": "class 0"}
{"MOLECULE": "O=C(O)CCC(F)(C(F)(F)F)C(F)(F)F", "CLASS_LABEL": "class 0"}

Could you now consider this next molecule?
Recorded call for COP(=S)(OC)Oc1cc(Cl)c(Cl)cc1Cl ?
class 0
